src = the supplement of paper PMC9732359

Assay: protein stability index of a GFP-peptide fusion (yeast GPS) (PSI 1-4); higher = more stable; sorted into four equal gates, so the index is relative within each strain
Conditions: ubr1∆
MEASUREMENT NAME: protein stability index

CONSTRUCT SEQUENCE | MEASUREMENT NAME | READOUT VALUE
SQFINDHILFTKTFIFI [SRB8] | protein stability index | 1.41
TESITHDSSNGLFQVLH [NUT1] | protein stability index | 3.17
NAIFQMESEEVPLTKRY [PCI8] | protein stability index | 3.08
KDGEIMLWNLAAKKAMY [ASC1] | protein stability index | 1.76
RNSNPENTVGLISGAGA [RPN10] | protein stability index | 2.06
DDYDYVMYGTAYKFEEV [RPB8] | protein stability index | 2.72
GNVLINDTLPDEISPEL [SNU114] | protein stability index | 2.71
TYEMRIHKRYIDLEAPV [RPS20] | protein stability index | 2.51
GRIPLHWSVSFQAHEIT [NAS6] | protein stability index | 2.69
SQFLKRVHANLQCISQI [SNF11] | protein stability index | 1.2
LVDENTDYLYRRLHDEN [YCS4] | protein stability index | 2.24
QIEKKKICRGRMNTIIT [SIR4] | protein stability index | 2.63
NLSLYEATAASHERFFL [CSN12] | protein stability index | 2.62
IDMLPMLLGTDLCSLKP [DIS3] | protein stability index | 2.45
LERFNKRADISKRRITE [SMC1] | protein stability index | 2.99
EIFHLLQPLEEGLIIDT [SIN4] | protein stability index | 1.97
PLASEESLTNSNMFDNS [YGL100W/SEH1] | protein stability index | 3.29
LWVFQAFTCFCIKKIME [SRB8] | protein stability index | 1.48
KNNNGDEKNKNNNEDNE [MED2] | protein stability index | 3.15
IAKSRYWYFLQKLHKVK [RPL20A] | protein stability index | 3.03
YRRALQSSESFDDSDIT [YML103C/NUP188] | protein stability index | 2.46
IHALAAKLLQENDTTLV [FAS1] | protein stability index | 3.33
IAHNISAKNRVVILARA [RPL32] | protein stability index | 1.52
DSMKYTISSLFVQLCEM [RPC82] | protein stability index | 2.17
VSTETFEQPSQREEAKK [RPL27A] | protein stability index | 3.1
SGNIQLDEIIEIARQMR [RPL12A] | protein stability index | 3.35
KSTYRTPNFDDVLKENN [RIP1] | protein stability index | 2.1
FLTVSKLWAEIIVKILY [GRR1] | protein stability index | 1.37
SDSLGPDTSNEICDLAY [SRB2] | protein stability index | 3.31
NAISNTQDDFTTSVDVM [SRP54] | protein stability index | 3.2
IINFGEIEQNTELLDEF [RPN10] | protein stability index | 3.17
DDFTDAIQFVKENELLF [YCS4] | protein stability index | 1.92
SRPATTTRNGFMEAQGA [FAS2] | protein stability index | 2.21
NLLIQRLNFNQNSSKIV [SWI3] | protein stability index | 2.93
SYSPTSPSYSPTSPNYS [RPO21] | protein stability index | 3.07
SKTSENKVSNTVSPTQD [SIR2] | protein stability index | 3.15
RENNFRVASDTVHEMEE [SMC4] | protein stability index | 2.95
TEPDKPAFSFNSSVGNK [YJL041W/NSP1] | protein stability index | 3.24
KQFVVDVLHPNRANVSK [RPS24A] | protein stability index | 3.07
NKLTGKQIVFEIPSETH [RPS7A] | protein stability index | 2.78
SLDFLNQSFIQQKANLL [COR1] | protein stability index | 1.65
GKMNNEVSTSTSMTGDA [SWI3] | protein stability index | 3.15
AQYCYKNGLYQEAFKIY [SRP72] | protein stability index | 3.25
LTYLYEMKNIRGPYLVI [SNF2] | protein stability index | 1.22

----------
Assay: protein stability index of a GFP-peptide fusion (yeast GPS) (PSI 1-4); higher = more stable; sorted into four equal gates, so the index is relative within each strain
Conditions: ubr1∆
# protein stability index >= 3 gives rule met, anything below gives rule not met

CONSTRUCT SEQUENCE | GROUP
KSMASAFGVSVAFLDND [RPN7] | rule met
RKINLFYLYMLVQKFGG [SWI1] | rule not met
SLYIFFTTLLESKQDGL [YML103C/NUP188] | rule not met
LYNDADVLTLENIQEGT [CDC53] | rule met
RYSRQFINNVLSNPSNQ [GRR1] | rule not met
LQKQILTVENKLQFETD [SMC1] | rule not met
RAHGRINKYESSPSHIE [RPL17A] | rule met
EKSPDPTIRSNAVLGLG [YCS4] | rule not met
NNKILEKCKEINVETVY [BRR2] | rule not met
DEDLLDTQTFSVLLQQL [YGL172W/NUP49] | rule not met
FESLYNSNDSVFVGSGK [BRR2] | rule met
ITSLQDSSSQCIVDFTN [YMR129W/POM152] | rule not met
INIQSFKDVEHISFNFS [BRR2] | rule not met
GSIQKGMPHKFYQGKTG [RPL21A] | rule not met
LLHETNDSFKGLITNKM [PRP8] | rule met
RFKVVKVSGVSLLALWK [RPS23A] | rule not met
KKMTKKAKRSNLYTPKA [PRP8] | rule not met
HLNFPNVKFLRIFISNV [SNF12] | rule not met
NRVGLTLDNIDDINKAK [ARP9] | rule not met
LEGITTTIDSLNAELES [SMC3] | rule met
IGLLNKSKSSLDGKFSL [RPN2] | rule not met
TAEINCFMHLLVQLFLW [RPN3] | rule not met
QQPNPLQDLISVYGLDD [ROX3] | rule not met
QFNAITGLNGSGKSNIL [SMC2] | rule met
SPEESKARSPGIAKPNA [SIR4] | rule met
GQLPQLPKLNLPKYQTI [SNF5] | rule not met
NISGEFFRNKLKYHDFL [RPL16B] | rule not met
YTREFVEAIRRSNQYQR [NUT2] | rule not met
IGESARIIREMFAYAKE [RPT4] | rule not met
IEKGSTFGINLIYVNPF [FAS1] | rule not met
SFSDENSDDFFMDNSYD [ESC2] | rule not met
KTLHSQMMSKGIGALFT [RPC34] | rule met
VLTGGYLDQHKRTRLES [SMC3] | rule not met
GVAHLLNRFNFQNTNTR [QCR2] | rule not met
ARTATVSKKWAAAGVCE [RPL14B] | rule not met
FISSGTSLLDSLISVLE [YJL039C/NUP192] | rule not met
LNAINNAEKTGKRQVLL [RPS22B] | rule met
KQREIVKAFLSIFEDAI [NUT1] | rule not met

----------
Assay: protein stability index of a GFP-peptide fusion (yeast GPS) (PSI 1-4); higher = more stable; sorted into four equal gates, so the index is relative within each strain
Settings: doa10∆
Listed next: entries and their corresponding protein stability index.

CONSTRUCT SEQUENCE | protein stability index
NSQLVGKPHFSLLGGFD [PCI8] | 2.42
DDNEMTRDDLLTILMRS [RRI2] | 2.44
KRSMDAEQLGHASKRHK [RPP1] | 2.54
DLPETGFFENIETEFLL [IRR1] | 3.13
IPHDLNFLQESYEVEHV [TAF14] | 3.16
VPTIGVVNSNFAKEHNA [YJR042W/NUP85] | 2.51
YWQYKAGIPIGLKRSQL [SWP82] | 1.7
IDMLPMLLGTDLCSLKP [DIS3] | 2.74
TRELAEEGYSGVEVRVT [RPS3] | 2.4
EVQCTSTPYLEILVEES [PCI8] | 2.3
ITSFLLSKMENVNLDDY [NAS6] | 1.95
LLDVVKGTEASNDIIDK [YDL116W/NUP84] | 2.08
IFNSGKMIILDKLLKRL [ISW2] | 2.17
ILDKIFYGVLDQGNGWL [RPN6] | 3.31
ITVHAPLLPIVEELMKK [SNU114] | 2.38
IKKPKTYKYPSLKGVDP [RPL29] | 3.63
RPLPQWIRLRTNNTIRY [RPL39] | 1.85
LTYLYEMKNIRGPYLVI [SNF2] | 1.22
LVDNLNAEVVAGNIKCR [BRR2] | 1.79
ARGTIEIVSDVKVVDAG [RPP0] | 1.61
RRRREGKTDYYQRKRLV [RPL5] | 3.31
NECIASTSNALKVLSGD [SNF12] | 2.89
PLPHRVQKSTKTFSYKR [RPL20A] | 2.39
KVLKSGSGVDSSKLQLT [RRP42] | 2.94
KAGVEAISQSLRDESLT [PRE5] | 3.05
ADKSLPSSMATLLKNLR [YJR042W/NUP85] | 2.97
VLVLHGDKDTRADIVRN [ISW2] | 3.02
VSCYRPRRDGERKRKSV [RPS6A] | 1.79
GKMNNEVSTSTSMTGDA [SWI3] | 3.49
SEDVSRDHEKDTYRTLM [YIL149C/MLP2] | 3.36
KEVASLPNKSTISKTVS [FAS2] | 3.09
ILDINVSSSKNKKSEEN [SWP82] | 3.36
EGQLKPGDGSSYINVTF [RPC25] | 3.44
PIFSFGKQEENGDEGDD [YOR098C/NUP1] | 3.63
